Data provenance is PubChem BioAssay (Tox21).

Assay: qHTS assay for identifying genotoxic compounds that show differential cytotoxicity against isogenic chicken DT40 cell lines with known DNA damage response pathways - Rad54/Ku70 mutant cell line (AID 743015); also: nearly all actives have a fitted effect of over 60% in size; also: potency is read from the fitted curve at half-maximal effect
Settings: DT40 Rad54/Ku70 mutant viability, CellTiter-Glo, 40 h; series mostly up to 66.8 µM
From the text: National Center for Advancing Translational Sciences [NCATS] NIH Chemical Genomics Center [NCGC] U.S. Environmental Protection Agency [EPA] National Institutes of Environmental Health Sciences [NIEHS] National Toxicology Program [NTP] U.S. Food and Drug Administration [FDA] DNA repair pathways play a critical role in cellular homeostasis by repairing DNA damage induced by endogenous processes and xenobiotics. […]
Results filed as inconclusive are left out. The source made the active and inactive calls. Calls follow the shape of the dose curve; as a rule, active = well fitted cell-killing curve with a large enough effect in the repeat runs; inconclusive = weak or mixed curves; inactive = no such curve, though single readings can be large or run the other way.
Endpoint label: Potency

>>> test_result("COc1cccc(-c2ccc(/C=C\\CN3CCCCCC3)cc2Cl)c1")
"2160 nM (active)"
>>> test_result("CN(Cc1ccccc1)Cc1ccccc1")
"inactive"
>>> test_result("CS(=O)(=O)c1ccc([C@@H](O)[C@@H](COC(=O)CN)NC(=O)C(Cl)Cl)cc1")
"7500 nM (active)"
>>> test_result("Cc1cc(N)c2ccccc2[n+]1CCCCCCCCCC[n+]1c(C)cc(N)c2ccccc21")
"2850 nM (active)"
>>> test_result("Cc1cc(=O)c(C(=O)N[C@@H](C(=O)N[C@@H]2C(=O)N3C(C(=O)O)=C(CSc4nnnn4C)CS[C@H]23)c2ccc(O)cc2)c[nH]1")
"inactive"

The compound listed as "CC(C)COC(=O)OCN1C(=O)CN(CCN2CC(=O)N(COC(=O)OCC(C)C)C(=O)C2)CC1=O" shows Potency equal to 188 nM (active)

The compound listed as "O=C1c2c(O)cccc2[C@H]([C@@H]2O[C@H](CO)[C@@H](O)[C@H](O)[C@H]2O)c2cc(CO)cc(O)c21" shows Potency equal to inactive

The compound listed as "NC(=O)[C@@H]1C[C@]2(NC(=O)NC2=O)c2cc(F)ccc2O1" shows Potency equal to inactive

The compound listed as "O=C1c2ccccc2C(=O)C1c1ccc(F)cc1" shows Potency equal to inactive

The compound listed as "C=CC[N@@+]12CC[C@@]34c5ccccc5N5/C=C6/[C@H]7C[C@H]8[C@@]9(CC[N@@+]8(CC=C)C/C7=C/CO)c7ccccc7N(/C=C(/[C@@H](C[C@@H]31)/C(=C\CO)C2)[C@H]54)[C@@H]69" shows Potency equal to inactive

The compound listed as C=CC1=C(C(=O)O)N2C(=O)[C@@H](NC(=O)/C(=N\O)c3csc(N)n3)[C@H]2SC1 (stereo in doubt) shows Potency equal to inactive

* * *

test: qHTS assay to identify small molecule agonists of the estrogen receptor alpha (ER-alpha) signaling pathway in the presence of an antagonist - cell viability counter screen (AID 1259386); conditions: VM7Luc4E2 viability, CellTiter-Fluor fluorescence, 22 h; series mostly up to 92.4 µM;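 also: cells exposed to compounds for 22 h at 37 °C before the viability read; nearly all actives have a fitted effect of over 30% in size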
Inconclusive results are not listed. Active and inactive are the calls of the source. The call rests on the fitted dose curve; in most records, active means well fitted cell-killing curve with a large enough effect in the repeat runs; inconclusive means weak or mixed curves, or effect the other way; inactive means no such curve, though single readings can be large or run the other way.
// one of active, inactive, no free text

Observe how each entry below is paired with its result.
>>> class_name("Oc1ccc(Cl)cc1C1CCCC1")
"inactive"
>>> class_name("NC(=O)C1CO1 (configuration not stated)")
"inactive"

Hello, I am checking results. What call was entered for "CC(=O)Nc1ccc(N=Nc2cc(C)ccc2O)cc1" ?
active

Hello, I am checking results. What call was entered for c1ccc(-c2ccc(C(c3ccccc3)n3ccnc3)cc2)cc1 (configuration not stated) ?
inactive

Hello, I am checking results. What call was entered for "CCCCCCCCSCc1cc(C)c(O)c(CSCCCCCCCC)c1" ?
inactive

Hello, I am checking results. What call was entered for "CCCCCCCCCCCC(=O)Cl" ?
inactive

Hello, I am checking results. What call was entered for "CCCCCCCCCC[N+](C)(CCCCCCCCCC)CCC[Si](OC)(OC)OC" ?
inactive

* * *

test: qHTS assay to identify small molecule antagonists of the androgen receptor (AR) signaling pathway using the MDA cell line in the presence of 0.5 nM R1881 - cell viability counter screen (AID 1259242); conditions: MDA-kb2 viability, CellTiter-Fluor protease fluorescence, 16 h; series mostly up to 92.4 µM; also: nearly all actives have a fitted effect of over 45% in size
Inconclusive results are not listed. Activity calls are given as the source filed them. Calls follow the shape of the dose curve; as a rule, active = well fitted cell-killing curve with a large enough effect in the repeat runs; inconclusive = weak or mixed curves, or effect the other way; inactive = flat fitted curve, though single readings scatter.
// one of active, inactive, no free text

Observe how each entry below is paired with its result.
>>> class_name("Nc1ccc(Cl)c([N+](=O)[O-])c1")
"inactive"
>>> class_name("CCCCCN=C(N)N/N=C/c1c[nH]c2ccc(OC)cc12")
"active"
>>> class_name("[Cl][Sc]([Cl])[Cl]")
"inactive"
>>> class_name("CCCC(C)C=O (centres undefined)")
"inactive"
>>> class_name("CCOc1nc(F)cc2nc(S(=O)(=O)Nc3c(Cl)cccc3C(=O)OC)nn12")
"inactive"
>>> class_name("Cc1ccc2n[nH]nc2c1")
"inactive"
>>> class_name("N#Cc1nc(Cl)c(Cl)c(Cl)c1Cl")
"active"
>>> class_name("CN1CCN(C)CC1")
"inactive"

Hello, I am checking results. What call was entered for "c1ccc(-c2ccccc2-c2ccccc2)cc1" ?
inactive

Hello, I am checking results. What call was entered for "NCc1ccco1" ?
inactive

Hello, I am checking results. What call was entered for "CN1CC[C@H](c2c(O)cc(O)c3c(=O)cc(-c4ccccc4Cl)oc23)[C@H](O)C1" ?
inactive

Hello, I am checking results. What call was entered for C=CC(=O)OCC(Br)CBr (centres undefined) ?
inactive

Hello, I am checking results. What call was entered for "CN1CCN(CCCN2c3ccccc3Sc3ccc(Cl)cc32)CC1" ?
inactive

Hello, I am checking results. What call was entered for "CCCCC/C=C\C=C\C(=O)OCC" ?
inactive

* * *

assay: qHTS assay to test for compound auto fluorescence at 590 nm (red) in HepG2 cells (AID 720674); conditions: HepG2 autofluorescence, red 540/590 nm, 1 h; series mostly up to 46 µM
Calls of active or inactive are those of the source. The call rests on the fitted dose curve; in most records, active means well fitted curve in the direction sought with a large enough effect in the repeat runs; inconclusive means weak or mixed curves; inactive means flat fitted curve, though single readings scatter.
Endpoint label: outcome

Study these solved cases before continuing.
>>> test_result("CC[C@@H](C(=O)[C@@H](C)[C@@H](O)[C@H](C)CCc1ccc(C)c(O)c1C(=O)O)[C@H]1O[C@](CC)([C@H]2CC[C@](O)(CC)[C@H](C)O2)C[C@@H]1C")
"inactive"
>>> test_result("OCC1(CO)COC(C(Cl)(Cl)Cl)OC1")
"inactive"
>>> test_result("NC(=O)[C@@H]1C[C@]2(NC(=O)NC2=O)c2cc(F)ccc2O1")
"inactive"
>>> test_result("CCCCC[C@H](O)/C=C/[C@@H]1[C@@H](C/C=C\\CCCC(=O)O)[C@@H](O)C[C@H]1O")
"inactive"
>>> test_result("C=CC[N+]1([C@H]2C[C@H]3[C@@H]4CC[C@H]5C[C@H](O)[C@@H](N6CCOCC6)C[C@]5(C)[C@H]4CC[C@]3(C)[C@H]2OC(C)=O)CCCC1")
"inactive"

The compound listed as "CC(=O)O[C@H]1C[C@@H]2CC[C@@H]3[C@H](CC[C@@]4(C)[C@H]3C[C@H]([N+]3(C)CCCCC3)[C@@H]4OC(C)=O)[C@@]2(C)C[C@@H]1[N+]1(C)CCCCC1" shows outcome equal to inactive

The compound listed as "O=[N+]([O-])c1ccc(O)c2ncccc12" shows outcome equal to inactive

The compound listed as CC(C)(Oc1ccc(C2CCCc3ccccc32)cc1)C(=O)O (stereo not drawn) shows outcome equal to inactive

The compound listed as "O=C[C@H](O)[C@@H](O)[C@@H](O)[C@H](O)CO" shows outcome equal to inactive

The compound listed as "C=C1[C@H](CO)[C@@H](O)C[C@@H]1n1cnc2c(=O)[nH]c(N)nc21" shows outcome equal to inactive

* * *

system: estrogen-related receptor alpha (ERRalpha) with PGC-1alpha coactivator, human; experiment: qHTS assay to identify small molecule antagonists of the estrogen related receptor signaling pathway with the pleiotropic PPARgamma coactivator (PGC) (AID 1224821); conditions: ERR/PGC reporter cell line, luciferase, antagonist mode; series mostly up to 46.1 µM; also: nearly all actives have a fitted effect of over 50% in size
Inconclusive results are not listed. The source made the active and inactive calls. Calls follow the shape of the full dose curve.
// one of active, inactive, no free text

Observe how each entry below is paired with its result.
>>> class_name("NC1(C(=O)O)CCc2cc(C(=O)O)ccc21 (configuration not stated)")
"inactive"
>>> class_name("Brc1c(Br)c(Br)c2n[nH]nc2c1Br")
"active"
>>> class_name("C#CCn1c(=O)c2c(ncn2C)n(C)c1=O")
"inactive"
>>> class_name("CC(=O)/C(C)=N/O")
"inactive"
>>> class_name("Cn1ncc(S(=O)(=O)Cc2ccccc2)c(Br)c1=O")
"inactive"
>>> class_name("CCCCCCCCCCCCCCSCC(=O)O")
"inactive"
>>> class_name("O=c1ccc2ccc(O)c(O)c2o1")
"inactive"
>>> class_name("N=C(N)SCCc1cnc[nH]1")
"inactive"

Hello, I am checking results. What call was entered for "Nc1c(S(=O)(=O)O)cc(Nc2ccc(Nc3nc(Cl)nc(Nc4ccc(S(=O)(=O)O)cc4)n3)c(S(=O)(=O)O)c2)c2c1C(=O)c1ccccc1C2=O" ?
active

Hello, I am checking results. What call was entered for "CCCCCCCC/C=C\CCCCCCCC(=O)NCCO" ?
inactive

Hello, I am checking results. What call was entered for "CC(C)(C)[C@]1(O)CCN2C[C@H]3c4ccccc4CCc4cccc(c43)[C@@H]2C1" ?
active

Hello, I am checking results. What call was entered for CN1C2CCCC1CC(NC(=O)c1nn(C)c3ccccc13)C2 (configuration not stated) ?
inactive

Hello, I am checking results. What call was entered for CC(=O)O[C@H]1CC2(C)[C@@H](C[C@@H](O)[C@H]3[C@@]4(C)CC[C@@H](O)[C@@H](C)[C@@H]4CC[C@@]32C)C1=C(CCC=C(C)C)C(=O)O (some centres not stated) ?
inactive

Hello, I am checking results. What call was entered for "Fc1ccc(CN(C2=NCCN2)c2c(Cl)cccc2Cl)cc1" ?
inactive

Hello, I am checking results. What call was entered for "CCN(CC)CCNC(=O)c1ccc(NS(C)(=O)=O)cc1" ?
inactive
